Assay: Pilot pharmacokinetic study after oral administration
Assay type: in vivo
Conditions: male, Balb/c, mouse; mice, oral gavage, 6 mg/kg TQ, plasma
Experimental: Thirty male Balb/c mice (8–10 weeks old) were housed in plastic cages in an air-conditioned room with free access to food and water and were fasted overnight prior to the experiment. […] To 100 μL of plasma (spiked with calibration curve samples or plasma extracted from treated mice), ethyl acetate (1 mL) was added and vortex mixed for 30 s. […] Samples were then injected into the LC-MS/MS system to quantify the plasma concentration of TQ at each time point. […]
result-type: Tmax (h)
Answers are plain numbers, in h.

Prompt: For the compound "CC1=CC(=O)C(C(C)C)=CC1=O" , report Tmax.
Response: 4

# credit: paper PMC7560238
